Biological target: T1, human GLP-1 receptor (human, UniProt P43220 24-463)
T1 construct: whole, on cells; also called hGLP-1R; human glucagon-like peptide-1 receptor
Assay: SPA competition vs [125I]-GLP-1, hGLP-1R membranes
pKi: −log10 of the molar value.
As shown below, each of these binders has a reported pKi value.

Binder: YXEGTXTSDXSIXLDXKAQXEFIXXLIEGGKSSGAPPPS (Aib2, αMeF(2F)6, 4Pal10, αMeL13, Orn16, K17(Z1), Aib20, D-Glu24, αMeY25, K31(Z1), C-term NH2; Z1=AEEA2-(γ-Glu)-(4-(4-iodophenyl)butanoyl))
pKi: 9.33
//
Binder: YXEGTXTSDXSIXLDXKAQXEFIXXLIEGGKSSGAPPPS (Aib2, αMeF(2F)6, 4Pal10, αMeL13, Orn16, K17(Z1), Aib20, D-Glu24, αMeY25, K31(Z1), C-term NH2; Z1=AEEA-(γ-Glu)-AEEA-CO-(CH2)12-CO2H)
pKi: 8.60
//
Binder: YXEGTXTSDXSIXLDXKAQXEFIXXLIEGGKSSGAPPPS (Aib2, αMeF(2F)6, 4Pal10, αMeL13, Orn16, K17(Z1), Aib20, D-Glu24, αMeY25, K31(Z1), C-term NH2; Z1=AEEA3-(γ-Glu)-CO-(CH2)12-CO2H)
pKi: 8.58
//
Binder: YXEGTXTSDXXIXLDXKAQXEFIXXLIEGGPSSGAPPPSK (Aib2, αMeF(2F)6, 4Pal10, Aib11, αMeL13, Orn16, K17(Z1), Aib20, D-Glu24, αMeY25, K40(Z1), C-term NH2; Z1=AEEA3-(γ-Glu)-CO-(CH2)10-CH3)
pKi: 9.66
//
Binder: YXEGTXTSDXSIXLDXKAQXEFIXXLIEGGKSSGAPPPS (Aib2, αMeF6, αMeF10, αMeL13, Orn16, K17(Z1), Aib20, D-Glu24, αMeY25, K31(Z1), C-term NH2; Z1=AEEA2-(γ-Glu)-CO-(CH2)12-CO2H)
pKi: 8.16
//
Binder: YXEGTXTSDKSIXLDXKAQXEFIXXLIEGGPSSGAPPPS (Aib2, αMeF(2F)6, K10(Z1), αMeL13, Orn16, K17(Z1), Aib20, D-Glu24, αMeY25, C-term NH2; Z1=AEEA2-(γ-Glu)-CO-(CH2)12-CO2H)
pKi: 8.19
//
Binder: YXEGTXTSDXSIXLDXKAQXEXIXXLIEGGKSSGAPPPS (Aib2, αMeF(2F)6, 4Pal10, αMeL13, Orn16, K17(Z1), Aib20, 3FPhe22, D-Glu24, αMeY25, K31(Z1), C-term NH2; Z1=AEEA2-(γ-Glu)-CO-(CH2)12-CO2H)
pKi: 8.82
//
Binder: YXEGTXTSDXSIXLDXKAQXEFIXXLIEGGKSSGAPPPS (Aib2, αMeF(2F)6, 4Pal10, αMeL13, Orn16, K17(Z1), Aib20, D-Glu24, αMeY25, K31(Z1), C-term NH2; Z1=AEEA-(γ-Glu)-(10-(4-carboxyphenoxy)decanoyl))
pKi: 9.20
//
Binder: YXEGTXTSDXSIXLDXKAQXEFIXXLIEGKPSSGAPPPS (Aib2, αMeF(2F)6, 4Pal10, αMeL13, Orn16, K17(Z1), Aib20, D-Glu24, αMeY25, K30(Z1), C-term NH2; Z1=AEEA2-(γ-Glu)-CO-(CH2)14-CH3)
pKi: 9.28
//
Binder: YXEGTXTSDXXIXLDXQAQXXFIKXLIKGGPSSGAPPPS (Aib2, αMeF(2F)6, 4Pal10, Aib11, αMeL13, Orn16, Aib20, Orn21, K24(Z1), αMeY25, K28(Z1), C-term NH2; Z1=AEEA-(γ-Glu)-(10-(4-carboxyphenoxy)decanoyl))
pKi: 9.84
//
Binder: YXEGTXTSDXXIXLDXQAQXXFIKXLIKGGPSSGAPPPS (Aib2, αMeF(2F)6, 4Pal10, Aib11, αMeL13, Orn16, Aib20, Orn21, K24(Z1), αMeY25, K28(Z1), C-term NH2; Z1=AEEA-(γ-Glu)3-(10-(4-carboxyphenoxy)decanoyl))
pKi: 9.66
//
Binder: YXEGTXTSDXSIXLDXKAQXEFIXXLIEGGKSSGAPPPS (Aib2, αMeF(2F)6, Bip10, αMeL13, Orn16, K17(Z1), Aib20, D-Glu24, αMeY25, K31(Z1), C-term NH2; Z1=AEEA2-(γ-Glu)-CO-(CH2)12-CO2H)
pKi: 8.29
//
Binder: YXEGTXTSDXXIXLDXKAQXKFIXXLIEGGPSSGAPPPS (Aib2, αMeF(2F)6, 4Pal10, Aib11, αMeL13, Orn16, K17(Z1), Aib20, K21(Z1), D-Glu24, αMeY25, C-term NH2; Z1=AEEA2-(γ-Glu)-CO-(CH2)10-CH3)
pKi: 9.63
